Tested on: K86415-001-R-J1-PDC complex spheroids, viability;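 further: spheroids exposed to agents for seven days before readout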
Assay: Anticancer human tumor K86415-001-R-J1-PDC patient-derived lung adenocarcinoma cell line growth inhibition [RAS]
Settings: second compound 0.03 µM; first compound 0.316 µM; active compounds read low
Description: RAS pathway inhibitors in Combinations in Complex Spheroids A high-throughput screen of multi-cell type tumor spheroids was designed to identify active combinations of RAS pathway inhibitors and targeted small molecules. Complex spheroids include a stromal component modeled by human endothelial cells (HUVEC) and fibroblasts modeled by human mesenchymal stem cells (MSCs). […] Compounds. […] If the clinical Cmax for an agent had not been determined, the highest concentration tested was 10 microM. […]
Collected viability, T/C values appear next to each entry.
Note: unit % is implicit; provide only the numeric part.

Field: example entries. Status: answers known.
MOLECULE | viability, T/C [%]
NC1c2ccccc2OC12CCN(c1cnc3c(N4CCCc5ncccc54)n[nH]c3n1)CC2 (stereo not drawn) + CCn1c(-c2cc(N3CCN(C)CC3)cnc2C(C)OC)c2c3cc(ccc31)-c1csc(n1)CC(NC(=O)C1CC1C)C(=O)N1CCCC(N1)C(=O)OCC(C)(C)C2 | 5.11
C[C@@H](NC(=O)c1ncnc(N)c1Cl)c1ncc(C(=O)Nc2cc(C(F)(F)F)c(Cl)cn2)s1 + CCn1c(-c2cccnc2C(C)OC)c2c3cc(ccc31)N1CCOC(CC(NC(=O)C(C(C)C)N(C)C(=O)C3(F)CCN(C(=O)C#CC(C)(C)N(C)C)CC3)C(=O)N3CCCC(N3)C(=O)OCC(C)(C)C2)C1 | 17
Cc1nc(N2CCC3(CC2)COC(C)C3N)c(CO)nc1Sc1ccnc(N)c1Cl (stereo not drawn) + CCn1c(-c2cccnc2C(C)OC)c2c3cc(ccc31)N1CCOC(CC(NC(=O)C(C(C)C)N(C)C(=O)C3(F)CCN(C(=O)C#CC(C)(C)N(C)C)CC3)C(=O)N3CCCC(N3)C(=O)OCC(C)(C)C2)C1 | 5.16
CCC(CC)c1cc(NC2CCC(N)C2)n2nccc2n1 (stereo not drawn) + CCn1c(-c2cc(N3CCN(C)CC3)cnc2C(C)OC)c2c3cc(ccc31)-c1csc(n1)CC(NC(=O)C1CC1C)C(=O)N1CCCC(N1)C(=O)OCC(C)(C)C2 | 7.94
Nc1ccn(C2OC(CO)C(O)C2(F)F)c(=O)n1 (stereo not drawn) + CCn1c(-c2cccnc2C(C)OC)c2c3cc(ccc31)N1CCOC(CC(NC(=O)C(C(C)C)N(C)C(=O)C3(F)CCN(C(=O)C#CC(C)(C)N(C)C)CC3)C(=O)N3CCCC(N3)C(=O)OCC(C)(C)C2)C1 | 9.66

Input line: Tell me its viability, T/C given NC1c2ccccc2OC12CCN(c1cnc3c(N4CCCc5ncccc54)n[nH]c3n1)CC2 (stereo not drawn) + CCn1c(-c2cccnc2C(C)OC)c2c3cc(ccc31)N1CCOC(CC(NC(=O)C(C(C)C)N(C)C(=O)C3(F)CCN(C(=O)C#CC(C)(C)N(C)C)CC3)C(=O)N3CCCC(N3)C(=O)OCC(C)(C)C2)C1 as the entry.
Output line: 4.52

Input line: Tell me measured viability, T/C for CC(Nc1ccc2c(c1)OCCn1cc(N3C(=O)OCC3C(F)F)nc1-2)C(N)=O (stereo not drawn) + CCn1c(-c2cc(N3CCN(C)CC3)cnc2C(C)OC)c2c3cc(ccc31)-c1csc(n1)CC(NC(=O)C1CC1C)C(=O)N1CCCC(N1)C(=O)OCC(C)(C)C2 please.
Output line: 1.24

Input line: Quick one: give measured viability, T/C for O=C(c1ccc(F)c(F)c1Nc1ccc(I)cc1F)N1CC(O)([C@@H]2CCCCN2)C1 + CCn1c(-c2cc(N3CCN(C)CC3)cnc2C(C)OC)c2c3cc(ccc31)-c1csc(n1)CC(NC(=O)C1CC1C)C(=O)N1CCCC(N1)C(=O)OCC(C)(C)C2
Output line: 1.25

Where do these numbers come from? They come from PubChem BioAssay AID2060893.
